System: Rattus norvegicus
test protocol: Effect on Dopa accumulation upon subcutaneous administration in the limbic system of rat brain
Type: functional
particulars: sc
Parameter ED50: see the listing below.

Field ED50 (entry `CN(C)[C@H]1CCc2ccc3[nH]ccc3c2C1` ) reads 4.2 µmol/kg

compound CN(C)C1CCc2ccc3[nH]ccc3c2C1 (racemic) , ED50 observed: 0.3 µmol/kg

Lab note: `CCCN(CCC)[C@@H]1CCc2ccc(O)cc2C1` gave ED50 of 0.0095 µmol/kg

Query `CN(C)[C@@H]1CCc2ccc3[nH]ccc3c2C1` yields ED50 of 0.3 µmol/kg

* * *

tested target: D(2) dopamine receptor (Rattus norvegicus, UniProt P61169)
Sequence (P61169 whole entry): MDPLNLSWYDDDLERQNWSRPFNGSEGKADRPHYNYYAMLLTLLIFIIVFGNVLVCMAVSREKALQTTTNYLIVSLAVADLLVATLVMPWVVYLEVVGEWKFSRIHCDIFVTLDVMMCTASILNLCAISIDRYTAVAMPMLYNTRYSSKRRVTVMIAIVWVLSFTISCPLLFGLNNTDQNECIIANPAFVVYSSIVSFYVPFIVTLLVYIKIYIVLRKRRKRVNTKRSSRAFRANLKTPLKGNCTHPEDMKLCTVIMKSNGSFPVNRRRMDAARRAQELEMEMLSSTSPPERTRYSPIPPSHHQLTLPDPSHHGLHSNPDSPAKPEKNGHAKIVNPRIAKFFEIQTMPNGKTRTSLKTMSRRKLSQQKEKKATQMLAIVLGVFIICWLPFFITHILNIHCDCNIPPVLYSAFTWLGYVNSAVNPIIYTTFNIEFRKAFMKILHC
test protocol: In vitro binding activity against dopamine receptor D2 from homogenized rat brain, using [3H]spiperone as the radioligand
assay readout: pIC50
Recall that pIC50 is obtained by taking minus log10 of the concentration measured in molar.

Looking up CCN(CC)C(=O)N[C@H]1C[C@@H]2c3cccc4[nH]cc(c34)C[C@H]2N(C)C1 [TERGURIDE] , I found its pIC50 recorded as 8.40
